Tested on: HeLa
ASSAY NAME: Cytotoxicity against human HeLa cells by sulforhodamine B assay
Assay type: functional, cell-based
Returns: string. Value is y if measured IC50 is below 70 nM, and n if it is greater than or equal to it.

CHEMICAL STRING	CLASS LABEL
CCC1=C[C@@H]2CN(CCc3c([nH]c4ccccc34)[C@@](C(=O)OC)(c3cc4c(cc3OC)N(C)[C@H]3[C@@](O)(CNC(=O)C5CC5)[C@H](OC(C)=O)[C@]5(CC)C=CCN6CC[C@]43[C@@H]65)C2)C1	y
CCC1=C[C@@H]2CN(CCc3c([nH]c4ccccc34)[C@@](C(=O)OC)(c3cc4c(cc3OC)N(C)[C@H]3[C@@](O)(CNC(=O)c5ccncc5)[C@H](OC(C)=O)[C@]5(CC)C=CCN6CC[C@]43[C@@H]65)C2)C1	y
CCC1=C[C@@H]2CN(CCc3c([nH]c4ccccc34)[C@@](C(=O)OC)(c3cc4c(cc3OC)N(C)[C@H]3[C@@](O)(CNC(=O)CC(C)C)[C@H](OC(C)=O)[C@]5(CC)C=CCN6CC[C@]43[C@@H]65)C2)C1	n
CCC1=C[C@@H]2CN(CCc3c([nH]c4ccccc34)[C@@](C(=O)OC)(c3cc4c(cc3OC)N(C)[C@H]3[C@@](O)(CNC(=O)c5ccc(F)cc5)[C@H](OC(C)=O)[C@]5(CC)C=CCN6CC[C@]43[C@@H]65)C2)C1	y
CCCC(=O)NC[C@@]1(O)[C@H](OC(C)=O)[C@]2(CC)C=CCN3CC[C@@]4(c5cc([C@@]6(C(=O)OC)C[C@@H]7C=C(CC)CN(CCc8c6[nH]c6ccccc86)C7)c(OC)cc5N(C)[C@@H]14)[C@@H]32	n
CCC1=C[C@@H]2CN(CCc3c([nH]c4ccccc34)[C@@](C(=O)OC)(c3cc4c(cc3OC)N(C)[C@H]3[C@@](O)(CNC(C)=O)[C@H](OC(C)=O)[C@]5(CC)C=CCN6CC[C@]43[C@@H]65)C2)C1	n
CCC1=C[C@@H]2CN(CCc3c([nH]c4ccccc34)[C@@](C(=O)OC)(c3cc4c(cc3OC)N(C)[C@H]3[C@@](O)(CNC(=O)c5cccc(Cl)c5)[C@H](OC(C)=O)[C@]5(CC)C=CCN6CC[C@]43[C@@H]65)C2)C1	y
CCC1=C[C@@H]2CN(CCc3c([nH]c4ccccc34)[C@@](C(=O)OC)(c3cc4c(cc3OC)N(C)[C@H]3[C@@](O)(CNC(=O)c5ccccc5Cl)[C@H](OC(C)=O)[C@]5(CC)C=CCN6CC[C@]43[C@@H]65)C2)C1	n

Hello, the source for this data is ChEMBL document CHEMBL1153037, in case you need it.
